Origin of measurements: patent US5804577A

// values below are reported MIC
Test system: L. monocytogenes BK23
ASSAY PROCEDURE: MIC by agar dilution method in Mueller Hinton agar
Assay type: cell-based
SETUP CONDITIONS: Listeria monocytogenes, BK23
Procedure: In vitro activity was determined by minimum inhibitory concentration in a microorganism spectrum by the agar dilution method in Mueller Hinton agar.

Nc1ccc(CN2CC/C(=C\C3=C(C(=O)O)N4C(=O)[C@@H](NC(=O)/C(=N\O)c5csc(N)n5)[C@H]4SC3)C2=O)cc1 [D]    4 µg/mL
Nc1nc(/C(=N/O)C(=O)N[C@@H]2C(=O)N3C(C(=O)O)=C(/C=C4\CCN(c5ccc(O)c(F)c5)C4=O)CS[C@H]23)cs1 [C]    1 µg/mL
Nc1nc(/C(=N/O)C(=O)N[C@@H]2C(=O)N3C(C(=O)O)=C(/C=C4\CCN(c5cccc([N+](=O)[O-])c5)C4=O)CS[C@H]23)cs1 [B]    4 µg/mL
Nc1nc(/C(=N/O)C(=O)N[C@@H]2C(=O)N3C(C(=O)O)=C(/C=C4\CCN(Cc5cccc(O)c5)C4=O)CS[C@H]23)cs1 [E]    2 µg/mL
Nc1nc(/C(=N/O)C(=O)N[C@@H]2C(=O)N3C(C(=O)O)=C(/C=C4\CCN(c5ccc(O)cc5)C4=O)CS[C@H]23)cs1 [A]    4 µg/mL
Nc1nc(/C(=N/O)C(=O)N[C@@H]2C(=O)N3C(C(=O)O)=C(/C=C4\CCN(Cc5nc6ccccc6[nH]5)C4=O)CS[C@H]23)cs1 [H]    4 µg/mL
C=CC1=C(C(=O)O)N2C(=O)[C@@H](NC(=O)/C(=N\O)c3csc(N)n3)[C@H]2SC1 [I, reference compound]    16 µg/mL

Let's switch to this molecule now.
// lookup MIC for Nc1nc(/C(=N/O)C(=O)N[C@@H]2C(=O)N3C(C(=O)O)=C(/C=C4\CCN(c5nncs5)C4=O)CS[C@H]23)cs1 [F]
4 µg/mL

----------
Test system: P. vulgaris 1028
ASSAY PROCEDURE: MIC by agar dilution method in Mueller Hinton agar
Format: cell-based
SETUP CONDITIONS: Proteus vulgaris, 1028
// values below are reported MIC

Nc1nc(/C(=N/O)C(=O)N[C@@H]2C(=O)N3C(C(=O)O)=C(/C=C4\CCN(c5nncs5)C4=O)CS[C@H]23)cs1    > 32 mg/L
Nc1nc(/C(=N/O)C(=O)N[C@@H]2C(=O)N3C(C(=O)O)=C(/C=C4\CCN(C5CCNCC5)C4=O)CS[C@H]23)cs1    > 32 mg/L
Nc1ccc(CN2CC/C(=C\C3=C(C(=O)O)N4C(=O)[C@@H](NC(=O)/C(=N\O)c5csc(N)n5)[C@H]4SC3)C2=O)cc1    > 32 mg/L
Nc1nc(/C(=N/O)C(=O)N[C@@H]2C(=O)N3C(C(=O)O)=C(/C=C4\CCN(c5ccc(O)c(F)c5)C4=O)CS[C@H]23)cs1    8 mg/L
Nc1nc(/C(=N/O)C(=O)N[C@@H]2C(=O)N3C(C(=O)O)=C(/C=C4\CCN(c5cccc([N+](=O)[O-])c5)C4=O)CS[C@H]23)cs1    16 mg/L
Nc1nc(/C(=N/O)C(=O)N[C@@H]2C(=O)N3C(C(=O)O)=C(/C=C4\CCN(Cc5nc6ccccc6[nH]5)C4=O)CS[C@H]23)cs1    16 mg/L

// lookup MIC for C=CC1=C(C(=O)O)N2C(=O)[C@@H](NC(=O)/C(=N\O)c3csc(N)n3)[C@H]2SC1 [I, reference compound]
1 mg/L

----------
System: E. coli 25922
ASSAY PROCEDURE: MIC by agar dilution method in Mueller Hinton agar
Type: cell-based
SETUP CONDITIONS: Escherichia coli, 25922
Procedure: In vitro activity was determined by minimum inhibitory concentration in a microorganism spectrum by the agar dilution method in Mueller Hinton agar.
QUANTITY NAME: MIC (mg/L)
Report the value in mg/L with no unit label.

# get_value(readout= MIC, system= E. coli 25922) for C=CC1=C(C(=O)O)N2C(=O)[C@@H](NC(=O)/C(=N\O)c3csc(N)n3)[C@H]2SC1 [I, reference compound]
0.25

# get_value(readout= MIC, system= E. coli 25922) for Nc1nc(/C(=N/O)C(=O)N[C@@H]2C(=O)N3C(C(=O)O)=C(/C=C4\CCN(Cc5nc6ccccc6[nH]5)C4=O)CS[C@H]23)cs1
0.12

# get_value(readout= MIC, system= E. coli 25922) for Nc1nc(/C(=N/O)C(=O)N[C@@H]2C(=O)N3C(C(=O)O)=C(/C=C4\CCN(c5cccc([N+](=O)[O-])c5)C4=O)CS[C@H]23)cs1
0.12

# get_value(readout= MIC, system= E. coli 25922) for Nc1nc(/C(=N/O)C(=O)N[C@@H]2C(=O)N3C(C(=O)O)=C(/C=C4\CCN(c5ccc(O)c(F)c5)C4=O)CS[C@H]23)cs1
0.12

# get_value(readout= MIC, system= E. coli 25922) for Nc1nc(/C(=N/O)C(=O)N[C@@H]2C(=O)N3C(C(=O)O)=C(/C=C4\CCN(c5nncs5)C4=O)CS[C@H]23)cs1
0.12

----------
Tested on: Acinetobacter sp. 51-156
ASSAY PROCEDURE: MIC by agar dilution method in Mueller Hinton agar
Format: cell-based
SETUP CONDITIONS: Acinetobacter, SP.51156
Method: In vitro activity was determined by minimum inhibitory concentration in a microorganism spectrum by the agar dilution method in Mueller Hinton agar.
QUANTITY NAME: MIC (µg/mL)
Report the value in µg/mL with no unit label.

Nc1nc(/C(=N/O)C(=O)N[C@@H]2C(=O)N3C(C(=O)O)=C(/C=C4\CCN(c5cccc([N+](=O)[O-])c5)C4=O)CS[C@H]23)cs1 [B]    16

Let's switch to this compound now.
# get_value(readout= MIC, system= Acinetobacter sp. 51-156) for Nc1nc(/C(=N/O)C(=O)N[C@@H]2C(=O)N3C(C(=O)O)=C(/C=C4\CCN(C5CCNCC5)C4=O)CS[C@H]23)cs1 [G]
32
